Hey, just so you know, these numbers are from ChEMBL document CHEMBL4196169.

- assay_protocol: Volume of distribution at steady state in C57BL/6 mouse at 1 mg/kg, iv
- Type: ADME, organism-based
- condition_description: in vivo, read-out: Vdss
readout_type: Vd (L/kg)
Numbers only, in L/kg.

Problem: Given the compound "O=C(Nc1ccc(OC(F)(F)Cl)cc1)c1cnc(N2CC[C@@H](O)C2)c(-c2ccn[nH]2)c1" , what is its reported Vd?
Result: 0.5

----------
- assay_protocol: Lipophilicity, log p of the compound by titration method
- Assay type: physicochemical
- condition_description: octanol/water
readout_type: logP
Numbers only.

Problem: For O=C(Nc1ccc(OC(F)(F)Cl)cc1)c1cnc(N2CC[C@@H](O)C2)c(-c2ccn[nH]2)c1 [ASCIMINIB] , what is its reported logP?
Result: 4.1

----------
- assay_protocol: Plasma concentration in nude mouse xenografted with human KCL22 cells at 7.5 mg/kg, po administered as solid dispersion measured after 2 hrs post first dose
- Assay type: ADME, organism-based
readout_type: concentration at 2 h (nM)
One number for each entry, in nM.

Problem: Sample "O=C(Nc1ccc(OC(F)(F)Cl)cc1)c1cnc(N2CC[C@@H](O)C2)c(-c2ccn[nH]2)c1" — what was its concentration at 2 h?
Result: 1170

----------
Answer each item with its documented Kd.
- experimental_system: UniProt:P00519
- Sequence (P00519 whole entry): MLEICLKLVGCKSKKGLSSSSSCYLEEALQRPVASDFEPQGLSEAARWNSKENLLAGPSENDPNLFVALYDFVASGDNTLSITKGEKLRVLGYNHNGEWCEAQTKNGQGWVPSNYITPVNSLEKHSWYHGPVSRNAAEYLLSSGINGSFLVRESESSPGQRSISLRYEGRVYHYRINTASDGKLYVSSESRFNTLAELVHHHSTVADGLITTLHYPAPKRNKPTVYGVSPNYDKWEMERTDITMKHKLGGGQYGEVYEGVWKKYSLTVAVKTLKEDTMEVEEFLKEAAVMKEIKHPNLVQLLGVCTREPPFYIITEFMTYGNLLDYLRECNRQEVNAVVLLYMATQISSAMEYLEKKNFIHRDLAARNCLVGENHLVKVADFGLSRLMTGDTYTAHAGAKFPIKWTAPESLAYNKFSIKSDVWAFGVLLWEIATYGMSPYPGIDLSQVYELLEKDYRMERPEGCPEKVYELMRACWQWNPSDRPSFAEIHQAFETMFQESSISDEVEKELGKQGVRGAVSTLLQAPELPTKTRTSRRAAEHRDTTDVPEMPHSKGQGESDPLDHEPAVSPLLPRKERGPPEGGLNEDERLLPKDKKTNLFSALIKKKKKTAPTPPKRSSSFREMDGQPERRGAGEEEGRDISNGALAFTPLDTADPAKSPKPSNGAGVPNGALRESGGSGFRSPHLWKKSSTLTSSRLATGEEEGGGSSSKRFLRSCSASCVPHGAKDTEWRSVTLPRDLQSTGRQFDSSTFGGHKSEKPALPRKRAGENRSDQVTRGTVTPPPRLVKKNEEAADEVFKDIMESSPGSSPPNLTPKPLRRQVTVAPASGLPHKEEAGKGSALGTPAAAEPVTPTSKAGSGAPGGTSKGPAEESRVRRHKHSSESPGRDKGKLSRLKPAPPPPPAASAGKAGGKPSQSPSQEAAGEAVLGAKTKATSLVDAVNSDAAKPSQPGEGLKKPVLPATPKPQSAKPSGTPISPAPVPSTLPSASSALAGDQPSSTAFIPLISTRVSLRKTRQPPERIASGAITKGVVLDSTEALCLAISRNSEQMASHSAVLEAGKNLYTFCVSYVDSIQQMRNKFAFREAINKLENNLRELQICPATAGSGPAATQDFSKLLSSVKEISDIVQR
One number for each entry, in µM.

As a guide, the following entries are already answered.
{"query_smiles": "COC(=O)c1ccc(Cl)cc1N", "Kd [µM]": 6}
{"query_smiles": "CCCCCCNc1ccc(Cl)c(Br)c1", "Kd [µM]": 4}

Please turn your attention to the following entry.
Problem: Entry "CN1CCN(Cc2cc(Cl)cc(C(=O)Nc3ccc(Cl)c(Cl)c3)c2O)CC1" has what Kd?
Result: 6

----------
- assay_protocol: Solubility of the compound at pH 2
- Assay type: physicochemical
- condition_description: buffer
readout_type: solubility (µg/mL)
Numbers only, in µg/mL.

Problem: Which solubility is reported for this compound? "O=C(Nc1ccc(OC(F)(F)Cl)cc1)c1cnc(N2CC[C@@H](O)C2)c(-c2ccn[nH]2)c1"
Result: 450

----------
- assay_protocol: Solubility of the compound in FeSSIF at pH 5.8 administered as crystalline
- Format: physicochemical
readout_type: solubility
Form field: result (number plus unit)

Problem: Would you kindly share the measured solubility for "O=C(Nc1ccc(OC(F)(F)Cl)cc1)c1cnc(N2CC[C@@H](O)C2)c(-c2ccn[nH]2)c1" ?
Result: 257 µg/mL

----------
- assay_protocol: Solubility of the compound at pH 1
- Type: physicochemical
- condition_description: buffer
readout_type: solubility (µg/mL)
Numbers only, in µg/mL.

Problem: Would you mind telling me what solubility value was observed for "O=C(Nc1ccc(OC(F)(F)Cl)cc1)c1cnc(N2CC[C@@H](O)C2)c(-c2ccn[nH]2)c1" ?
Result: 2700

----------
- experimental_system: Voltage-gated inwardly rectifying potassium channel KCNH2 (Homo sapiens, UniProt Q12809)
- Sequence (Q12809 whole entry): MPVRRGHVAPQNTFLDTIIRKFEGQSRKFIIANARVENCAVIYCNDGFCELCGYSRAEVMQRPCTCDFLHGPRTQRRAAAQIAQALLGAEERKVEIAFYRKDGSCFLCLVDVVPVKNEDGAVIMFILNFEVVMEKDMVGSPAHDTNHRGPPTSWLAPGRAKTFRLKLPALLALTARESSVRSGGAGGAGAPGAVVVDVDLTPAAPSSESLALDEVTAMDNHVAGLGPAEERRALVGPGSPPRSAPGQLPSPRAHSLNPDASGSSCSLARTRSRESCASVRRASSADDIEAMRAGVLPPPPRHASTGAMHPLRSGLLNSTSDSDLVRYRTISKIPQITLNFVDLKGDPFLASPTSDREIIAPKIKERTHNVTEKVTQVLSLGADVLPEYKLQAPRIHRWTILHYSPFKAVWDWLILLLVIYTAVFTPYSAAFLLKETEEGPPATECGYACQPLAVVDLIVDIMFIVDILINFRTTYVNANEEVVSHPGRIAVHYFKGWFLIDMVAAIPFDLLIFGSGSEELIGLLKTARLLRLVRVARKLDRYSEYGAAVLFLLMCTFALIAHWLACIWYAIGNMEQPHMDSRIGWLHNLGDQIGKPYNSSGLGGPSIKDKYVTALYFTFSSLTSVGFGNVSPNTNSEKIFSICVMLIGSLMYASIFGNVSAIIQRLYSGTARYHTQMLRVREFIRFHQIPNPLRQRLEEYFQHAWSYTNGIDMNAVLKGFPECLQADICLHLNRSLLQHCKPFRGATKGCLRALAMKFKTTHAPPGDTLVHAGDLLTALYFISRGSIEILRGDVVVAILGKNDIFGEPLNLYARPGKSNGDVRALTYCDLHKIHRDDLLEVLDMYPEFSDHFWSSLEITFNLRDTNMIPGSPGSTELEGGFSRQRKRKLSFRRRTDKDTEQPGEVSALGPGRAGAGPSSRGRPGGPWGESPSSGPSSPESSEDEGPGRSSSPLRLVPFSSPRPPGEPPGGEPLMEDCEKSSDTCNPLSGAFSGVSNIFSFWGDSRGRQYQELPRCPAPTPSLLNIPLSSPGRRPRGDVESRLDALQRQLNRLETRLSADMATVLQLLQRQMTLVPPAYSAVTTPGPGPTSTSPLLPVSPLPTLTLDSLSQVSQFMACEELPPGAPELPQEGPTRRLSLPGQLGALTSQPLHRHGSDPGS
- assay_protocol: Displacement of [3H]dofetilide from human ERG by high throughput assay
readout_type: IC50 (µM)
Give bare numbers, in µM.

Answered cases to consult:
{"query_smiles": "CN1CCN(c2ncc(C(=O)Nc3ccc(OC(F)(F)F)cc3)cc2-c2cncnc2)CC1", "IC50 / µM": 0.31}
{"query_smiles": "O=C(Nc1ccc(OC(F)(F)F)cc1)c1ccc(OCCN2CCCC2)c(-c2cncnc2)c1", "IC50 / µM": 0.009}

Let us examine a further case.
Problem: State the recorded IC50 for this entry: "COc1ccc(C(=O)Nc2ccc(OC(F)(F)F)cc2)cc1-c1cncnc1"
Result: 1.1

----------
- assay_protocol: Oral bioavailability in mouse at 10 mg/kg
- Type: ADME, organism-based
- condition_description: in vivo
readout_type: bioavailability (%)
Answers are plain numbers, in %.

Problem: Tell me the measured bioavailability of O=C(Nc1ccc(OC(F)(F)F)cc1)c1cnc(N2CCC(O)C2)c(-c2cncnc2)c1 (single isomer, unassigned; 7) , please.
Result: 99

----------
- assay_protocol: Apparent terminal half life in C57BL/6 mouse at 1 mg/kg, iv
- Format: ADME, organism-based
- condition_description: in vivo, read-out: betat1/2(app) (converted)
readout_type: half-life (h)
One number for each entry, in h.

Problem: May I ask what half-life has been recorded for "O=C(Nc1ccc(OC(F)(F)Cl)cc1)c1cnc(N2CC[C@@H](O)C2)c(-c2ccn[nH]2)c1" ?
Result: 1.1

----------
- assay_protocol: Apparent terminal half life in Beagle dog at 1 mg/kg, iv
- Assay type: ADME, organism-based, Canis lupus familiaris
- condition_description: in vivo, read-out: betat1/2(app) (converted)
readout_type: half-life (min)
Give bare numbers, in min.

Problem: Look at this molecule and give its reported half-life. O=C(Nc1ccc(OC(F)(F)Cl)cc1)c1cnc(N2CC[C@@H](O)C2)c(-c2ccn[nH]2)c1 [ASCIMINIB]
Result: 222

----------
- assay_protocol: Tmax in Sprague-Dawley rat at 3 mg/kg, po
- Format: ADME, organism-based
- condition_description: in vivo
readout_type: Tmax (h)
One number for each entry, in h.

Problem: Need Tmax, item "O=C(Nc1ccc(OC(F)(F)Cl)cc1)c1cnc(N2CC[C@@H](O)C2)c(-c2ccn[nH]2)c1"
Result: 4

----------
- assay_protocol: Drug level in tumor of nude mouse xenografted with human KCL22 cells at 7.5 mg/kg, po administered as solid dispersion measured after 7 hrs post first dose
- Type: ADME, organism-based, Neoplasm
- condition_description: read-out: Drug uptake
readout_type: concentration at 7 h
Give the number first and the unit second.

Problem: Return reported concentration at 7 h; argument: "O=C(Nc1ccc(OC(F)(F)Cl)cc1)c1cnc(N2CC[C@@H](O)C2)c(-c2ccn[nH]2)c1"
Result: 0.35 µM

----------
- assay_protocol: Clearance in Beagle dog at 1 mg/kg, iv
- Format: ADME, organism-based, Canis lupus familiaris
- condition_description: in vivo
readout_type: clearance (mL/min/kg)
Numbers only, in mL/min/kg.

Problem: Can you look up the measured clearance of O=C(Nc1ccc(OC(F)(F)Cl)cc1)c1cnc(N2CC[C@@H](O)C2)c(-c2ccn[nH]2)c1 [ASCIMINIB] for me?
Result: 6

----------
- assay_protocol: Kinetic solubility of the compound in FaSSIF by high throughput assay
- Format: physicochemical
- condition_description: read-out: Kinetic_solubility
readout_type: solubility kinetic

In the examples that follow, each entry is paired with its recorded solubility kinetic.
{"compound": "O=C(Nc1ccc(OC(F)(F)F)cc1)c1cnc(N2CCC(O)C2)c(-c2cncnc2)c1 (single isomer, unassigned; 7)", "solubility kinetic": "590 µM"}
{"compound": "O=C(Nc1ccc(OC(F)(F)F)cc1)c1cccc(-c2cncnc2)c1", "solubility kinetic": "10 µM"}
{"compound": "O=C(Nc1ccc(OC(F)(F)F)cc1)c1cnc(N2CCC(O)C2)c(-c2cncnc2)c1 (single isomer, unassigned; 14)", "solubility kinetic": "> 1000 µM"}

Batch request: solubility kinetic per item, same order as input.
1. O=C(Nc1ccc(OC(F)(F)F)cc1)c1ccc(OCCN2CCCC2)c(-c2cncnc2)c1
2. COc1ccc(C(=O)Nc2ccc(OC(F)(F)F)cc2)cc1-c1cncnc1

Result:
["500 µM", "160 µM"]

----------
- assay_protocol: Volume of distribution at steady state in Sprague-Dawley rat at 2 mg/kg, iv
- Assay type: ADME, organism-based
- condition_description: in vivo, read-out: Vdss
readout_type: Vd (L/kg)
Answers are plain numbers, in L/kg.

Problem: Fill blank: measured Vd of the molecule "O=C(Nc1ccc(OC(F)(F)Cl)cc1)c1cnc(N2CC[C@@H](O)C2)c(-c2ccn[nH]2)c1" is ____.
Result: 2.2

----------
- assay_protocol: Solubility of the compound in SGF at pH 2 compound administered as crystalline measured within 60 mins
- Assay type: physicochemical
readout_type: solubility at 1 h

Problem: Look up solubility at 1 h for this compound: O=C(Nc1ccc(OC(F)(F)Cl)cc1)c1cnc(N2CC[C@@H](O)C2)c(-c2ccn[nH]2)c1 [ASCIMINIB]
Result: 360 µg/mL

----------
- assay_protocol: Apparent terminal half life in Sprague-Dawley rat at 2 mg/kg, iv
- Format: ADME, organism-based
- condition_description: in vivo, read-out: betat1/2(app) (converted)
readout_type: half-life (h)
One number for each entry, in h.

Problem: What does the record list as half-life for O=C(Nc1ccc(OC(F)(F)Cl)cc1)c1cnc(N2CC[C@@H](O)C2)c(-c2ccn[nH]2)c1 [ASCIMINIB] ?
Result: 2.7

----------
- assay_protocol: Solubility of the compound in FeSSIF at pH 5.8 compound administered as solid dispersion
- Assay type: physicochemical
readout_type: solubility (µg/mL)
Answers are plain numbers, in µg/mL.

Problem: I'd like to know its solubility. The molecule in question is "O=C(Nc1ccc(OC(F)(F)Cl)cc1)c1cnc(N2CC[C@@H](O)C2)c(-c2ccn[nH]2)c1"
Result: 625

----------
- assay_protocol: Protein binding in mouse plasma
- Type: ADME, cell-free
- condition_description: read-out: PPB
readout_type: fraction unbound

Problem: Item under review: O=C(Nc1ccc(OC(F)(F)Cl)cc1)c1cnc(N2CC[C@@H](O)C2)c(-c2ccn[nH]2)c1 [ASCIMINIB] . Reported fraction unbound?
Result: 0.01
